TGT: T1, human MC4 receptor (human, UniProt P32245 1-332)
T1 construct: whole, on cells; Assayed as membranes of BHK cells stably expressing the receptor; also called melanocortin receptor subtype 4; melanocortin receptor 4
PROTOCOL NOTES: 125I-NDP-α-MSH displacement, BHK-human MC4 membranes (Assay V);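 note: Filter-retained radioactivity read by gamma counting, with affinity obtained through non-linear regression fitting of the binding curves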
Positions of bridges follow the written chain, without caps; N, C: chain ends. Non-standard residues stand in square brackets, D forms with d. Groups on a side chain read outwards from the residue. Primed or numbered codes have the meaning given here. *: point of attachment. X2 = (2-(2-(16-(tetrazol-5-yl)hexadecanoylamino)ethoxy)ethoxy)acetyl, O=C(CCCCCCCCCCCCCCCc1nn[nH]n1)NCCOCCOCC(=O)*; X3 = (2-(2-(15-carboxypentadecanoylamino)ethoxy)ethoxy)acetyl, O=C(O)CCCCCCCCCCCCCCC(=O)NCCOCCOCC(=O)*; X4 = (2-(2-(16-carboxyhexadecanoylamino)ethoxy)ethoxy)acetyl, O=C(O)CCCCCCCCCCCCCCCC(=O)NCCOCCOCC(=O)*; biscarboxymethyl = Lys(biscarboxymethyl) = Nepsilon-bis(carboxymethyl)-L-lysine; biscarboxymethyl(4) = Lys(biscarboxymethyl) = N6-bis(carboxymethyl)-L-lysine; bis(carboxymethyl) = Lys(biscarboxymethyl) = N6-bis(carboxymethyl)-L-lysine; Palmitoyl(16-(5-tetrazolyl)) = O=C(CCCCCCCCCCCCCCCc1nnn[nH]1)*; biscarboxymethyl(3) = Nepsilon-bis(carboxymethyl) on Lys; C17 diacid = O=C(O)CCCCCCCCCCCCCCCC(=O)*; Orn = NCCC[C@H](N)C(=O)O; Dab = NCC[C@H](N)C(=O)O; AEEA = NCCOCCOCC(=O)O
MEASURED QUANTITY: log10(Ki) (log10 of the value in nM)
Could you please treat all values as log10 of Ki in nM?

Consider the worked cases shown below.
Q: If you can, please state the reported log10(Ki) value of Ac-DH[dF]RW[Dab]PPRDK(biscarboxymethyl(4))K(X2)-NH2 (lactam 1-6) .
Ans: 0.12

Q: Another binder to look at: Ac-[Orn]H[dF]RWDPPHEK(biscarboxymethyl)K(X4)-NH2 (lactam 1-6)
Ans: 0.02

Q: Please answer likewise for Ac-EQ[dF]RW[Orn]PPRDK(biscarboxymethyl(3))K([AEEA-Palmitoyl(16-(5-tetrazolyl))])-NH2 (lactam 1-6)
Ans: 1.76

Q: Would you mind doing Ac-[Orn]H[dF]RWDPSSSK(biscarboxymethyl)SSK(X3)-NH2 (lactam 1-6) as well?
Ans: 0.08

Q: Quick one: Ac-[Orn]H[dF]RWEPPHEK(bis(carboxymethyl))K([AEEA-C17 diacid])-NH2 (lactam 1-6)
Ans: 1.33

***
Q: Which log10(Ki) value is on record for Ac-EH[dF]RW[Orn]PPHDK(biscarboxymethyl)K(X2)-NH2 (lactam 1-6) ?
Ans: 0.55

Q: And then Ac-EH[dF]RW[Orn][dP][dP]RDK(biscarboxymethyl(3))K([AEEA-Palmitoyl(16-(5-tetrazolyl))])-NH2 (lactam 1-6) , what is it?
Ans: 0.66

Q: Now consider Ac-[Orn]H[dF]RWDPPREK(biscarboxymethyl)K(X3)-NH2 (lactam 1-6) and answer again.
Ans: 0.34
